system: DLD-1 colon; experiment: NCI tumour cell line growth inhibition, 48 h
endpoint: TGI

molecule=N#C/C(=C\c1ccc2ccccc2c1)C(=O)c1ccccc1 endpoint=TGI result="> 100 µM"
molecule="COc1cc2c(cc1OC)C(C(c1ccccc1)c1ccccc1)N(C)CC2 (stereo unspecified)" endpoint=TGI result="> 100 µM"
molecule="CCOC(=O)C1S/C(=N\\C(=N)N[N+](=O)[O-])N=C1C (stereo unspecified)" endpoint=TGI result="> 100 µM"
molecule=COc1cc(OC)c2c(=O)cc(-c3ccc(OC)c(OC)c3OC)oc2c1 endpoint=TGI result="> 100 µM"
molecule=Cc1c(N(C)C)ccc2c(=O)c3cccc(CC(=O)O)c3oc12 endpoint=TGI result="> 100 µM"
molecule="COc1ccc(CCN(C)C2CCC(C#N)(c3ccc(OC)c(OC)c3)CC2)cc1OC (stereo unspecified)" endpoint=TGI result="> 100 µM"
molecule=Cc1nc(Nc2ccc(Cl)cc2)sc1C(=O)NNC(=S)NN endpoint=TGI result="30.7 µM"
molecule=CC(C)(C)c1cc(C(P(=O)(O)O)P(=O)(O)O)cc(C(C)(C)C)c1O endpoint=TGI result="> 100 µM"
molecule=CSc1nc(SC)c2c(C#N)[nH]nc2n1 endpoint=TGI result="> 100 µM"
molecule="COC(=O)C1CCCC2(C1)OCCO2 (stereo unspecified)" endpoint=TGI result="> 100 µM"
molecule=O=C(/C(=C/c1ccc(Cl)cc1)c1ccccc1)c1ccccc1 endpoint=TGI result="31.8 µM"

* * *

tested on: UACC-62 melanoma; experiment: NCI tumour cell line growth inhibition, 48 h
Here the recorded TGI is given for each entry.
endpoint: TGI

compound="CN1CCOC1c1ccccc1O (stereo not drawn)" result="> 100 µM"
compound=O=[N+]([O-])C(=C(Nc1ccccc1)Nc1ccccc1)C(Cl)=C(Cl)Cl result="32.2 µM"
compound=CNCCOC(=O)/C=C1\CC[C@H]2[C@@H]([C@@H](O)C(=O)[C@@H]3[C@]2(C)CC[C@H](O)[C@]3(C)C(=O)OC)[C@H]1C result="2.93 µM"
compound="CC(c1ccccc1)N1CCN(C(C)c2ccccc2)CC1 (stereo not drawn)" result="> 100 µM"
compound="COc1cccc(N2C(Cl)C(=O)C2c2c[nH]c3ccccc23)c1 (stereo not drawn)" result="> 100 µM"
compound=COc1cc(OC)c2c(=O)cc(-c3ccc(OC)c(OC)c3OC)oc2c1 result="> 100 µM"
compound=CC(C)SC(=S)Sc1c(Cl)c(Cl)nc(Cl)c1Cl result="24.1 µM"
compound="COc1ccc(CCN(C)C2CCC(C#N)(c3ccc(OC)c(OC)c3)CC2)cc1OC (stereo not drawn)" result="> 100 µM"
compound="CC(NC(=O)Cc1ccccc1)NC(=O)C(C)C(=O)Nc1ccccc1 (stereo not drawn)" result="> 100 µM"
compound="CC1OC(c2ccc3c(OCc4ccccc4)cccc3c2O)CC(OCc2ccccc2)[C@H]1OCc1ccccc1 (stereo partly drawn)" result="> 10 µM"
compound=CCOS(C)(=O)=O result="> 100 µM"
compound=CC(=NNC(=S)Nc1ccccc1)c1cccc(C(C)=NNC(=S)Nc2ccccc2)n1 result="26.7 µM"
compound=O=C(O)COc1ccccc1C(=O)Nc1ccccc1 result="> 100 µM"
compound=Cc1cc2c(=O)c3ccccc3[nH]c2c(C(N)=O)c1C result="> 100 µM"
compound=N#C/C(=C\c1ccc2ccccc2c1)C(=O)c1ccccc1 result="> 78.5 µM"
compound="COC(=O)C1CCCC2(C1)OCCO2 (stereo not drawn)" result="> 100 µM"
compound=CN(C)C1CCN(C(=O)c2ccc(NC(=O)Nc3ccc(-c4nc(N5CCOCC5)c5cccn5n4)cc3)cc2)CC1 result="0.287 µM"
compound="Cc1nn(-c2ccccc2)c2c1C(c1cc3ccccc3nc1Cl)NC(=O)N2 (stereo not drawn)" result="42.5 µM"
